Entry source: patent US20200317642A1

# MEASUREMENT TARGET: human EHMT2 913-1193 (Homo sapiens)
# Construct: recombinant purified human EHMT2 913-1193, Viva; purchased Viva
# Sequence (Q96KQ7 913-1193): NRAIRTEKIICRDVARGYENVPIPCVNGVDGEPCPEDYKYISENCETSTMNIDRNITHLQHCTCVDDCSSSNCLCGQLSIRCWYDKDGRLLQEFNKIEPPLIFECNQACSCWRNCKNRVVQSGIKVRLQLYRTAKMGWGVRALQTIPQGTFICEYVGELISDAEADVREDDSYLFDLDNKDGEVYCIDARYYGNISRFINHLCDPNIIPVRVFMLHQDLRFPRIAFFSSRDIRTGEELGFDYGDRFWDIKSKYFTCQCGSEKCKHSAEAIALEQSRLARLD
# METHOD DESCRIPTION: EHMT2 enzyme assay on histone peptide substrate
# Type: biochemical
# EXPERIMENTAL SETUP: Table 3; histone H3 1-15 peptide, balanced conditions; read-out: EHMT2 PEP (IC50 μM)

>  <COMPOUND SMILES>
CNc1cc(C)nc(Nc2ccc(Cl)c(C(=O)Nc3ncco3)c2)n1

>  <IC50>
1 to 10 µM

$$$$
>  <COMPOUND SMILES>
CNc1cc(C)nc(Nc2ccc(Cl)c(C(=O)NCC3COC3)c2)n1

>  <IC50>
> 10 µM

$$$$
>  <COMPOUND SMILES>
CNc1cc(C)nc(Nc2ccc(Cl)c(C(=O)NCC3CC3)c2)n1

>  <IC50>
> 10 µM

$$$$
>  <COMPOUND SMILES>
CNc1cc(C)nc(Nc2ccc(C)c(C(=O)Nc3c[nH]cn3)c2)n1

>  <IC50>
1 to 10 µM

$$$$
>  <COMPOUND SMILES>
CNc1cc(C)nc(Nc2ccc(OC)c(CNCCN3CC[C@H](C)C3)c2)n1

>  <IC50>
0.1 to 1 µM

$$$$
>  <COMPOUND SMILES>
CCCCNC(=O)c1cc(Nc2nc(C)cc(NC)n2)ccc1Cl

>  <IC50>
1 to 10 µM

$$$$
>  <COMPOUND SMILES>
CNc1cc(C)nc(Nc2ccc(Cl)c(C(=O)NC3CCOCC3)c2)n1

>  <IC50>
> 10 µM

$$$$
>  <COMPOUND SMILES>
CNc1cc(C)nc(Nc2ccc(Cl)c(C(=O)Nc3cscn3)c2)n1

>  <IC50>
1 to 10 µM

$$$$
>  <COMPOUND SMILES>
CNc1cc(C)nc(Nc2ccc(OC)c(CNC[C@H](C)N3CCCC3)c2)n1

>  <IC50>
> 10 µM

$$$$
>  <COMPOUND SMILES>
CNc1cc(C)nc(Nc2ccc(OC)c(CN[C@H](C)CN3CCCC3)c2)n1

>  <IC50>
1 to 10 µM

$$$$
>  <COMPOUND SMILES>
CNc1cc(C)nc(Nc2ccc(OC)c(CNCCN3CCC[C@@H]3C)c2)n1

>  <IC50>
> 10 µM

$$$$
>  <COMPOUND SMILES>
CNc1cc(C)nc(Nc2ccc(Cl)c(C(=O)Nc3cn(C)cn3)c2)n1

>  <IC50>
> 10 µM

$$$$
>  <COMPOUND SMILES>
CNc1cc(C)nc(Nc2ccc(Cl)c(C(=O)NCC3CCC3)c2)n1

>  <IC50>
1 to 10 µM

$$$$
>  <COMPOUND SMILES>
CNc1cc(C)nc(Nc2ccc(OC)c(C#CC[N+](C)(C)CCN)c2)n1

>  <IC50>
> 10 µM

$$$$
>  <COMPOUND SMILES>
CNc1cc(C)nc(Nc2ccc(Cl)c(C(=O)Nc3cocn3)c2)n1

>  <IC50>
> 10 µM

$$$$
>  <COMPOUND SMILES>
CNc1cc(C)nc(Nc2ccc(C3CC3)c(CNCCN3CCCC3)c2)n1

>  <IC50>
0.1 to 1 µM

$$$$
>  <COMPOUND SMILES>
CNc1cc(C)nc(Nc2ccc(OC)c(OC[C@H](O)CN3CCCCC3)c2)n1

>  <IC50>
> 10 µM

$$$$
>  <COMPOUND SMILES>
CNc1cc(C)nc(Nc2ccc(OC)c(CNCCN3CCC[C@H]3C)c2)n1

>  <IC50>
0.1 to 1 µM

$$$$
>  <COMPOUND SMILES>
CNc1cc(C)nc(Nc2ccc(OC)c(CNCCN3CC(C)C3)c2)n1

>  <IC50>
> 10 µM

$$$$
